# test system: WT HIV-1 RT (Human immunodeficiency virus type 1 group M subtype B)
# Construct: asymmetric heterodimer composed of a 66-kDa (p66) subunit and a p66-derived 51-kDa (p51) subunit
# measurement protocol: biochemical
# test conditions: mean ± SD, at least four experiments, read-out: IC50, inhibition of RT RNA-dependent DNA polymerase activity

molecule	IC50, nM
Cc1cc(/C=C/C#N)cc(C)c1Nc1ccnc(Nc2ccc(C#N)cc2)n1 [Rilpivirine, rilpivirine]	22.5

----------
# Test system: K103N HIV-1
# measurement protocol: HIV-1 drug susceptibility assay, K103N virus
# Format: cell-based
# test conditions: Human immunodeficiency virus 1, read-out: EC50, inhibition of HIV-1 replication
measured metric: EC50 (µM)

1) O=C1Nc2ccc(Cl)cc2[C@@](C#CC2CC2)(C(F)(F)F)O1 0.064
